B1: NLV3 TCR beta chain (CDR3β only) (parent)
chain: ASSPTGGSPSPLH
partner: MLVPMVATV

Variants of: B1
Assay: T-Switch: Jurkat TCRβ−/− cells expressing a CDR3 saturation-mutagenesis library, stained with two peptide-HLA-A*02:01 tetramers (original and novel peptide) plus anti-CD3, FACS-sorted into four gates, gDNA sequenced
Details: with HLA-A*02:01 with peptide … (NLV 3-1, the original bait), tetramers 1 µg/mL, 30 min on ice, DP and SW gates expanded about 10 days between rounds ('two to three rounds of selection' in the Methods), gate SP: higher = more of the variant in the gate that binds the original peptide and not the novel one = retained original binding. Fold enrichment of the CDR3 variant in one FACS gate of a two-tetra, unresolved parent, parent is a CDR3 fragment, scale: fold enrichment, numbering: sequential-on-construct, sequence …
MEASUREMENT TYPE: enrichment
I only need the number, thanks.

Examples with their reported enrichment follow.
VARIANT: […] (CDR3 as printed); S10M derived by comparing it with the table's wild-type CDR3 ASSPTGGSPSPLH
enrichment: 9.51

VARIANT: […] (CDR3 as printed); P4F derived by comparing it with the table's wild-type CDR3 ASSPTGGSPSPLH
enrichment: 1.88

VARIANT: […] (CDR3 as printed); L12H derived by comparing it with the table's wild-type CDR3 ASSPTGGSPSPLH
enrichment: 0

VARIANT: […] (CDR3 as printed); G7V derived by comparing it with the table's wild-type CDR3 ASSPTGGSPSPLH
enrichment: 0

VARIANT: […] (CDR3 as printed); L12R derived by comparing it with the table's wild-type CDR3 ASSPTGGSPSPLH
enrichment: 0

VARIANT: […] (CDR3 as printed); A1K derived by comparing it with the table's wild-type CDR3 ASSPTGGSPSPLH
enrichment: 0

VARIANT: […] (CDR3 as printed); S10E derived by comparing it with the table's wild-type CDR3 ASSPTGGSPSPLH
enrichment: 5.53

VARIANT: […] (CDR3 as printed); G6C derived by comparing it with the table's wild-type CDR3 ASSPTGGSPSPLH
enrichment: 0

Quick note, enrichment for […] (CDR3 as printed); G7M derived by comparing it with the table's wild-type CDR3 ASSPTGGSPSPLH landed at 0

So for […] (CDR3 as printed); H13T derived by comparing it with the table's wild-type CDR3 ASSPTGGSPSPLH , the logged enrichment turned out to be 5.47

Reported enrichment ( […] (CDR3 as printed); S10L derived by comparing it with the table's wild-type CDR3 ASSPTGGSPSPLH ) = 8.65

Input […] (CDR3 as printed); P4C derived by comparing it with the table's wild-type CDR3 ASSPTGGSPSPLH . Output enrichment: 0

Short answer for […] (CDR3 as printed); S10D derived by comparing it with the table's wild-type CDR3 ASSPTGGSPSPLH : enrichment was 0.543

// enrichment value for […] (CDR3 as printed); A1M derived by comparing it with the table's wild-type CDR3 ASSPTGGSPSPLH : 0

Please fill in: enrichment reported for […] (CDR3 as printed); S3Y derived by comparing it with the table's wild-type CDR3 ASSPTGGSPSPLH = 0

The variant listed as […] (CDR3 as printed); H13I derived by comparing it with the table's wild-type CDR3 ASSPTGGSPSPLH has a reported enrichment of 11.3

Sample […] (CDR3 as printed); S10N derived by comparing it with the table's wild-type CDR3 ASSPTGGSPSPLH ; enrichment observed: 0

Per the records, this variant ( […] (CDR3 as printed); G7I derived by comparing it with the table's wild-type CDR3 ASSPTGGSPSPLH ) has enrichment equal to 0

Record summary for […] (CDR3 as printed); S10H derived by comparing it with the table's wild-type CDR3 ASSPTGGSPSPLH : reported enrichment = 0

The recorded enrichment for entry […] (CDR3 as printed); T5D derived by comparing it with the table's wild-type CDR3 ASSPTGGSPSPLH equals 0

Lookup result for […] (CDR3 as printed); P4L derived by comparing it with the table's wild-type CDR3 ASSPTGGSPSPLH ; measured enrichment: 0

enrichment reported for this variant […] (CDR3 as printed); S3V derived by comparing it with the table's wild-type CDR3 ASSPTGGSPSPLH : 0

Notebook: […] (CDR3 as printed); G6Y derived by comparing it with the table's wild-type CDR3 ASSPTGGSPSPLH , enrichment read as 0

// sample […] (CDR3 as printed); T5N derived by comparing it with the table's wild-type CDR3 ASSPTGGSPSPLH , its enrichment was 0
